The measured values listed here are drawn from the nanobody polyreactivity screen of Harvey et al. (2022).

Experiment: yeast display, Sf9 membrane polyspecificity reagent, FACS + sequencing; frameworks hold sequencing errors
metric: polyreactivity (PSR sort gate)

Previously resolved entries follow.
{"ordered.residues": "QVQLVESGGGLVQAGGSLRLSCAASGSIFNRYAMGWYRQAPGKERELVAVIRWRDGSTYYADSVKGRFTISRDNAKNTVYLQMNSLKPEDTAVYYCAAVYWGEEYEYWGQGTQVTVSS", "polyreactivity (PSR sort gate)": "low polyreactivity"}
{"ordered.residues": "QVQLVESGGGLVQAGGSLRLSCAASGFTFGSNTMGWYRQAPGKERELVAAITTSGDSTYYADSVKGRFTISRDNAKNTVYLQMNCLKPEDTAVYYCAAERRYGRYYRLVRLLGQGTQVTVSS", "polyreactivity (PSR sort gate)": "high polyreactivity"}
{"ordered.residues": "QVQLVESGGGLVQAGGSLRLSCAASGRIFGAYARGWYRQAPGKERELVAAITSAGSTHYADSVKGRFTISRDNAKNTVYLQMNSLKPEDTAVYYCAADGIARAYVLFDAYDFLYDYWGQGTQVSVSS", "polyreactivity (PSR sort gate)": "low polyreactivity"}
{"ordered.residues": "QVQLVESGGGLVQAGGSLRLSCAASGRTFDIYAMGWYRQAPGKERELVAAISSGGSTYYADSVKGRFTISRDNAKNTVYLQMNSLKPEDTAVYYCAVRWYDQVSRRGIGYYWGQGTQVTVSS", "polyreactivity (PSR sort gate)": "low polyreactivity"}

Now consider the entry below.
Entry under test: QVQLVETGGGLVQAGGSLRLSCAASGSIFHYYAKGWYRQAPGKERELVAAISWSGVTTYYADSVKGRFTISRDNAKNTVYLQMNSLKPEDTAVYYCAADSWRYPYYYWGQGTQVNVSS . Its polyreactivity (PSR sort gate) was high polyreactivity
